Values were extracted from patent US20090304746A1.

- Target: T1, HLA-DR7 (DRB1*0701) (human)
- T1 chain 1: not shown
- T1 chain 2: not shown
- Run Description: purified HLA-DR, inhibition of 125I standard peptide, gel filtration
Value Type: relative binding (IC50 of standard peptide / IC50 of test peptide)

Ask: Any idea what relative binding (IC50 of standard peptide / IC50 of test peptide) was measured for FPDLGVRVCEKMALY (modifications not checked) ?
Result: 0.0002

Ask: Returns the measured relative binding (IC50 of standard peptide / IC50 of test peptide) for the input binder. Input: ASQLSAPSLKATCTT (modifications not checked)
Result: 0.0006

Ask: Would you kindly share the measured relative binding (IC50 of standard peptide / IC50 of test peptide) for VYLLPRRGPRLGVRA (modifications not checked) ?
Result: 0.0003

Ask: # lookup: relative binding (IC50 of standard peptide / IC50 of test peptide) of ARLIVFPDLGVRVCE (modifications not checked)
Result: 0.0004

Ask: What relative binding (IC50 of standard peptide / IC50 of test peptide) value was documented for this binder, PQTFQVAHLHAPTGS (modifications not checked) ?
Result: 0.0003

Ask: Please give the measured relative binding (IC50 of standard peptide / IC50 of test peptide) for this binder: VYCFTPSPVVVGTTD (modifications not checked)
Result: 0.074

Ask: Which relative binding (IC50 of standard peptide / IC50 of test peptide) is listed for ASCLRKLGVPPLRVW (modifications not checked) ?
Result: 0.029
